target: Paired box protein Pax-6 (Homo sapiens); assay: ATG_Pax6_CIS: Attagene CIS-FACTORIAL HepG2 Assay for human Paired Box 6 (PAX6) (AID 2282956); details: HepG2 CIS-FACTORIAL PAX6 reporter transcription, RNA readout; actives raise or lower the signal
Active and inactive are the calls of the source. Rule for the calls: active = hit-call score of the fitted dose curve at least 0.9, where 1 is the maximum; inactive = score below 0.9.
Outcome codes: true (active), false (inactive)

- compound: "CC(C)(C)c1csc(-c2cc3cc(OCc4ccccc4CC(=O)O)ccc3o2)n1"
  targetEntity: "Paired box protein Pax-6 (Homo sapiens)"
  assignedCategory: "true"
- compound: "CC1=CC(=O)/C(=C(/C)O)C(=O)O1"
  targetEntity: "Paired box protein Pax-6 (Homo sapiens)"
  assignedCategory: "false"
- compound: "Cc1ccc(C(C)C)cc1"
  targetEntity: "Paired box protein Pax-6 (Homo sapiens)"
  assignedCategory: "false"
- compound: "O=c1ccc2ccccc2o1"
  targetEntity: "Paired box protein Pax-6 (Homo sapiens)"
  assignedCategory: "false"
- compound: "O=c1[nH]sc2ccccc12"
  targetEntity: "Paired box protein Pax-6 (Homo sapiens)"
  assignedCategory: "false"
- compound: "O=CCCCC=O"
  targetEntity: "Paired box protein Pax-6 (Homo sapiens)"
  assignedCategory: "false"
- compound: "c1ccc(C[n+]2cccc3ccccc32)cc1"
  targetEntity: "Paired box protein Pax-6 (Homo sapiens)"
  assignedCategory: "false"
- compound: "CCCCCCCC[Si](OCC)(OCC)OCC"
  targetEntity: "Paired box protein Pax-6 (Homo sapiens)"
  assignedCategory: "false"
- compound: "CO[C@H]1/C=C/O[C@@]2(C)Oc3c(C)c(O)c4c(O)c(c(/C=N/N5CCN(C)CC5)c(O)c4c3C2=O)NC(=O)/C(C)=C\\C=C\\[C@H](C)[C@H](O)[C@@H](C)[C@@H](O)[C@@H](C)[C@H](OC(C)=O)[C@@H]1C"
  targetEntity: "Paired box protein Pax-6 (Homo sapiens)"
  assignedCategory: "false"
- compound: "NC(=O)c1nc(-c2cccc(-c3cc(F)ccc3OCC(F)(F)C(F)(F)F)c2)n[nH]1"
  targetEntity: "Paired box protein Pax-6 (Homo sapiens)"
  assignedCategory: "true"
- compound: "CCO[Si](CCCNC(N)=O)(OCC)OCC"
  targetEntity: "Paired box protein Pax-6 (Homo sapiens)"
  assignedCategory: "false"
- compound: "Cc1cccc2ccccc12"
  targetEntity: "Paired box protein Pax-6 (Homo sapiens)"
  assignedCategory: "false"
- compound: "O=C1O[C@H]([C@@H](O)CO)C(O)=C1O"
  targetEntity: "Paired box protein Pax-6 (Homo sapiens)"
  assignedCategory: "false"
- compound: "Oc1ccc2ccccc2c1"
  targetEntity: "Paired box protein Pax-6 (Homo sapiens)"
  assignedCategory: "false"
- compound: "CC[C@H](NC(=O)c1cc(F)ccc1NS(=O)(=O)c1cccc2cccnc12)c1ccccc1"
  targetEntity: "Paired box protein Pax-6 (Homo sapiens)"
  assignedCategory: "false"
- compound: "CC(=O)N1CCN(c2ccc(OC[C@H]3CO[C@](Cn4ccnc4)(c4ccc(Cl)cc4Cl)O3)cc2)CC1"
  targetEntity: "Paired box protein Pax-6 (Homo sapiens)"
  assignedCategory: "true"
- compound: "Cc1ccc2oc(CN(Cc3ccccc3)C(=O)Nc3c(F)cc(F)cc3F)c(-c3ccc(Cl)cc3)c2c1"
  targetEntity: "Paired box protein Pax-6 (Homo sapiens)"
  assignedCategory: "false"
- compound: "NCc1cccc(C2CCN(C(=O)c3ccc(C#Cc4ccccc4F)o3)CC2)c1"
  targetEntity: "Paired box protein Pax-6 (Homo sapiens)"
  assignedCategory: "true"
- compound: "C[C@]12CC[C@@H]3c4ccc(O)cc4CC[C@H]3[C@@H]1CC[C@H]2O"
  targetEntity: "Paired box protein Pax-6 (Homo sapiens)"
  assignedCategory: "false"
- compound: "Oc1ccccc1"
  targetEntity: "Paired box protein Pax-6 (Homo sapiens)"
  assignedCategory: "false"
- compound: "C[C@]12CC[C@@H]3c4ccc(O)cc4CC[C@H]3[C@@H]1CCC2=O"
  targetEntity: "Paired box protein Pax-6 (Homo sapiens)"
  assignedCategory: "false"
- compound: "O=C(OCCCCCCOC(=O)c1ccccc1)c1ccccc1"
  targetEntity: "Paired box protein Pax-6 (Homo sapiens)"
  assignedCategory: "false"
- compound: "Cc1cc2c(cc1C(F)(F)F)N(C(=O)Nc1ccc(Oc3cccnc3C)nc1)CC2"
  targetEntity: "Paired box protein Pax-6 (Homo sapiens)"
  assignedCategory: "false"
- compound: "COCC(C)OCC(C)OCC(C)O (centres undefined)"
  targetEntity: "Paired box protein Pax-6 (Homo sapiens)"
  assignedCategory: "false"
- compound: "CCCCCCCCOC(=O)c1cc(O)c(O)c(O)c1"
  targetEntity: "Paired box protein Pax-6 (Homo sapiens)"
  assignedCategory: "false"
- compound: "O=C(O)Cn1c(=O)n(Cc2ccc(Br)cc2F)c(=O)c2ccc(Cl)cc21"
  targetEntity: "Paired box protein Pax-6 (Homo sapiens)"
  assignedCategory: "false"
- compound: "Cc1cc(F)ccc1-c1cc(N2CC[C@@H](O)[C@H]2CO)ncc1N(C)C(=O)C(C)(C)c1cc(C(F)(F)F)cc(C(F)(F)F)c1"
  targetEntity: "Paired box protein Pax-6 (Homo sapiens)"
  assignedCategory: "false"
- compound: "O=c1c(-c2ccc(O)cc2)coc2cc(O)cc(O)c12"
  targetEntity: "Paired box protein Pax-6 (Homo sapiens)"
  assignedCategory: "false"
- compound: "CC(O)CC(C)(C)O (centres undefined)"
  targetEntity: "Paired box protein Pax-6 (Homo sapiens)"
  assignedCategory: "false"

Just for reference, PubChem BioAssay (EPA / NIEHS) is where these values come from.
